Biological target: human GM-CSF T117 isoform (human, UniProt P04141 18-144)
Sequence (P04141 18-144 I117T limits assumed): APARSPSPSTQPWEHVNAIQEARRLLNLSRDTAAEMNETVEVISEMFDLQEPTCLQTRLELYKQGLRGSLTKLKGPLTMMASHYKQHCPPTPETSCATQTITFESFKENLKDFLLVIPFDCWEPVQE
Assay: cell-based or functional assay
readout: Fold human T117/I117 (TF-1 proliferation IC50) (fold)
State just the number; it will be interpreted in fold.

query: GET /values?readout=Fold human T117/I117 (TF-1 proliferation IC50)&item= 4K21 hVH S55K-T62S hVL S27eY-N28I-H34S-N53R-H93F (MSB0010629) (antibody, V domains shown, Tested as IgG ('optimized 4K21 IgGs'); the humanized parent is hIgG1 kappa; also called optimized 4K21 antibody with S27eY; 4K21 (4K21 VH S55K-T62S VL S27eY-N28I-H34S-N53R-H93F)) VH: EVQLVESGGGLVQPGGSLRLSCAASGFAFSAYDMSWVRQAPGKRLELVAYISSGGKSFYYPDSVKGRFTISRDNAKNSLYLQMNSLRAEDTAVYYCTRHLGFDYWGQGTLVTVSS VL: DIVMTQSPLSLPVTPGEPASISCRSSQSLVNYIGNTYLSWYLQKPGQSPQLLIYKVSRRFSGVPDRFSGSGSGTDFTLKISRVEAEDVGVYYCSQSTFVPPTFGQGTKVEIK
result: 1.6

query: GET /values?readout=Fold human T117/I117 (TF-1 proliferation IC50)&item= humanized parental anti-GM-CSF 4K21 VH3-07.1AL+VK2-A3.2 hIgG1 K antibody (MSB0010439) (antibody, V domains shown, hIgG1 kappa; also called humanized parental 4K21 hVH hVL; humanized parental 4K21) VH: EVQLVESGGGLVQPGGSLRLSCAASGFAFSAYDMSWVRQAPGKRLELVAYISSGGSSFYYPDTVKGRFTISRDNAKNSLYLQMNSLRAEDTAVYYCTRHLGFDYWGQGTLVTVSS VL: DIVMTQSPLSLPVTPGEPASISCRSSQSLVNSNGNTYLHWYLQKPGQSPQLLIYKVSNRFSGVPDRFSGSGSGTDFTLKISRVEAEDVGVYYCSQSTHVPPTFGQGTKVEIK
result: 11.6

query: GET /values?readout=Fold human T117/I117 (TF-1 proliferation IC50)&item= 4K21 hVH S55K-T62S hVL N28I-H34S-N53R-H93F (MSB0010628) (antibody, V domains shown, Tested as IgG ('optimized 4K21 IgGs'); the humanized parent is hIgG1 kappa; also called optimized 4K21 antibody; 4K21 (4K21 VH S55K-T62S VL N28I-H34S-N53R-H93F)) VH: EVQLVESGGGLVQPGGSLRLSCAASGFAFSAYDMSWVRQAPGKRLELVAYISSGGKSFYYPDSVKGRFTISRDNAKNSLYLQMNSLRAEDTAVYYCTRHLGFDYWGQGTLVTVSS VL: DIVMTQSPLSLPVTPGEPASISCRSSQSLVNSIGNTYLSWYLQKPGQSPQLLIYKVSRRFSGVPDRFSGSGSGTDFTLKISRVEAEDVGVYYCSQSTFVPPTFGQGTKVEIK
result: 1.2

query: GET /values?readout=Fold human T117/I117 (TF-1 proliferation IC50)&item= anti-GM-CSF 4K21 hIgG1 K antibody (MSB0010259), recombinant chimeric 4K21 (antibody, V domains shown, Murine variable domains fused to human constant IgG1 heavy chain and kappa light chain domains; also called parental chimeric 4K21) VH: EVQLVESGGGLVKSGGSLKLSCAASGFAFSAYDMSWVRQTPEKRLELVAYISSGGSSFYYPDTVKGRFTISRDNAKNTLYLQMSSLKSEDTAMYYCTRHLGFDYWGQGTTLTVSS VL: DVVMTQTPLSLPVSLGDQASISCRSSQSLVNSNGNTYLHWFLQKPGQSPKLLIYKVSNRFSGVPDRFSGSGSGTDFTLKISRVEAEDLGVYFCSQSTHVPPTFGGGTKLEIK
result: 10.8
